Every entry's value here was drawn from patent US10138207B2.

Listed below: EC50 values for each entry.
target: μ-opioid receptor (Homo sapiens); test: μ-opioid receptor [35S]GTPγS functional assay, U-2 OS cells; format: biochemical; parameters: expressed in transfected cells; host or cells: U-2 OS; conditions: U-2 OS cells; read-out: GTPγS μ EC50
Sequence (P35372 whole entry, species assumed): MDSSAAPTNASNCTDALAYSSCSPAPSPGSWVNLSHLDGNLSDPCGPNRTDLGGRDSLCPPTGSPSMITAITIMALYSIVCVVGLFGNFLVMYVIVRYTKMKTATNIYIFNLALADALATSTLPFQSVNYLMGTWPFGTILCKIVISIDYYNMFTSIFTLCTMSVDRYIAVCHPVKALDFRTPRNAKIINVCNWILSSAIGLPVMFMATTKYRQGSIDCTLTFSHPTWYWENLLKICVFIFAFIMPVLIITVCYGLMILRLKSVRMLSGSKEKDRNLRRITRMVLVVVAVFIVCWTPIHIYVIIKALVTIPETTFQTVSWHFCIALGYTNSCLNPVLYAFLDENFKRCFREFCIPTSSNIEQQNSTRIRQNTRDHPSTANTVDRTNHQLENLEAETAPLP
Report as a plain number; the unit nM is understood.

What is its EC50 for μ-opioid receptor (Homo sapiens)? Entry: CN1CC[C@@]2(C)c3cc(O)ccc3C[C@@H]1[C@H]2N(C)CCc1ccc(S(N)(=O)=O)cc1
29

* * *

Measured pEC50, listed per entry for reference.
biological target: κ opioid receptor (Homo sapiens, UniProt P41145); assay: κ-opioid receptor [35S]GTPγS functional assay, U-2 OS cells; type: biochemical; parameters: expressed in transfected cells; host or cells: U-2 OS (in-house membranes)
Sequence (P41145 whole entry): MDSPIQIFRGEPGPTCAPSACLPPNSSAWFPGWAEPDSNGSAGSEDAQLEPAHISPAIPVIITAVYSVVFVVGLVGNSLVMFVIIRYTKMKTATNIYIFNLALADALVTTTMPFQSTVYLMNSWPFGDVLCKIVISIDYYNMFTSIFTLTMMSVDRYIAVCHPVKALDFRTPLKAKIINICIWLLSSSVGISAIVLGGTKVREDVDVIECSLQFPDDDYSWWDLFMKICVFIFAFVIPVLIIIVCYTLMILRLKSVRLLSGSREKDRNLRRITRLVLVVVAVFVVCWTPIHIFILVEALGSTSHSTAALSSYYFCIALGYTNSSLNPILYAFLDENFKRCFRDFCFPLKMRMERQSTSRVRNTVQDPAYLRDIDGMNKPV
Please express pEC50 as -log10 of the molar concentration.

Worked examples, 2 molecules total:
[[record]]
structure_notation = "CN1CC[C@@]2(C)c3cc(O)ccc3C[C@@H]1[C@@H]2N(C)C(=O)Cc1ccsc1"
target = "κ opioid receptor (Homo sapiens, UniProt P41145)"
value_measured = 6.95

[[record]]
structure_notation = "CN1CC[C@@]2(C)c3cc(O)ccc3C[C@@H]1[C@@H]2NCCc1ccc(F)cc1"
target = "κ opioid receptor (Homo sapiens, UniProt P41145)"
value_measured = 5.97


Given the molecule C[C@]12CCN(CC3CC3)[C@H](Cc3ccc(O)cc31)[C@@H]2NC(=O)c1ccsc1 , what is its reported pEC50?
6.02

* * *

target: μ-opioid receptor (Homo sapiens); assay: μ-opioid receptor [35S]GTPγS functional assay, HEK-293 or CHO cells
QUANTITY: EC50 (µM)
// note: answer is a bare numeric in µM

Field: example entries. Status: answers known.
[[record]]
compound = "CN1CC[C@]2(C)c3cc(O)ccc3CC1[C@@H]2CC(=O)Nc1ccccc1C(=O)O"
units_text = "µM"
value_measured = 2.57

[[record]]
compound = "CN(C(=O)Nc1ccc(C#N)cc1)[C@H]1C2Cc3ccc(O)cc3[C@@]1(C)CCN2CC1CC1"
units_text = "µM"
value_measured = 0.216

[[record]]
compound = "CN1CC[C@]2(C)c3cc(O)ccc3CC1C2N(C)c1ccc(CCS(N)(=O)=O)cc1 (stereo in doubt)"
units_text = "µM"
value_measured = 0.00144


# evaluate next
# input compound: CN1CC[C@]2(C)c3cc(O)ccc3CC1[C@@H]2N1Cc2ccccc2NC1=O ; wanted: its EC50
0.409

* * *

biological target: κ opioid receptor (Homo sapiens); test: κ-opioid receptor [35S]GTPγS functional assay, U-2 OS cells; type: biochemical; parameters: expressed in transfected cells; host or cells: U-2 OS (in-house membranes); details: read-out: GTPγS κ Emax
QUANTITY: Emax (%)
Lab book: enter the figure in %, no units written.

Solved entries (count: 3):
[[record]]
compound = "CN1CC[C@@]2(C)c3cc(O)ccc3C[C@@H]1[C@H]2NCC1CCN(C(=O)OC(C)(C)C)CC1 [Compound 106]"
quantity = "Emax"
units_text = "%"
value_measured = 1

[[record]]
compound = "CN(C(=O)Nc1nc2cc(F)ccc2s1)[C@@H]1[C@H]2Cc3ccc(O)cc3[C@]1(C)CCN2CC1CC1 [Compound 134]"
quantity = "Emax"
units_text = "%"
value_measured = 90

[[record]]
compound = "CN1CC[C@@]2(C)c3cc(O)ccc3C[C@@H]1[C@@H]2N(C)C(=O)Cc1ccsc1 [Compound 123]"
quantity = "Emax"
units_text = "%"
value_measured = 74


Now consider the entry below.
What Emax value was documented for this compound, C[C@]12CCN(CC3CC3)[C@H](Cc3ccc(O)cc31)[C@@H]2NC(=O)c1ccsc1 [Compound 127] ?
93
